target: Alpha-1D adrenergic receptor (Rattus norvegicus, UniProt P23944); assay: Partial affinity towards Alpha-1 adrenergic receptor was assessed on rat aortic strips
Sequence (P23944 whole entry): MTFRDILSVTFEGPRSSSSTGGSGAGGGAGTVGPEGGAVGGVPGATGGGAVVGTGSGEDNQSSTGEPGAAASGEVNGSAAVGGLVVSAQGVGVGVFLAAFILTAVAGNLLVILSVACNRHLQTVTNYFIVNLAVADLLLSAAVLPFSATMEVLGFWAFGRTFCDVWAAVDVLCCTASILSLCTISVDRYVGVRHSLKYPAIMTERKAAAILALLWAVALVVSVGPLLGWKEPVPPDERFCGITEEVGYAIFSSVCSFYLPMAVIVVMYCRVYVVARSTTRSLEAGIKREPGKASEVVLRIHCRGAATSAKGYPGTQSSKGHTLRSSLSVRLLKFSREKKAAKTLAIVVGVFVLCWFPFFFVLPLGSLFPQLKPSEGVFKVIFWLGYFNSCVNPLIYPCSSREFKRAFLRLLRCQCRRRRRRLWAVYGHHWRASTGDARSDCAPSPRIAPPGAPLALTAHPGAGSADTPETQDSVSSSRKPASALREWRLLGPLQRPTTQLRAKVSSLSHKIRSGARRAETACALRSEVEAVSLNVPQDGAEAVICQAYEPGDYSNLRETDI
Measured pA2 of individual entries
// return a plain number; no unit text

// known answers, use as guide
chemical smiles	target under test	measured
COC(=O)c1c(C(=O)N2CCN(c3nc(N)c4cc(OC)c(OC)cc4n3)CC2)no[n+]1[O-]	Alpha-1D adrenergic receptor (Rattus norvegicus, UniProt P23944)	8.55
COc1cc2nc(N3CCN(C(=O)c4no[n+]([O-])c4C(N)=O)CC3)nc(N)c2cc1OC	Alpha-1D adrenergic receptor (Rattus norvegicus, UniProt P23944)	8.25
COc1cc2nc(N3CCC(S(=O)(=O)c4nonc4-c4ccccc4)CC3)nc(N)c2cc1OC	Alpha-1D adrenergic receptor (Rattus norvegicus, UniProt P23944)	9.17
COc1cc2nc(N3CCC(S(=O)(=O)c4no[n+]([O-])c4-c4ccccc4)CC3)nc(N)c2cc1OC	Alpha-1D adrenergic receptor (Rattus norvegicus, UniProt P23944)	8.96
COc1cc2nc(N3CCC(S(=O)(=O)c4c(-c5ccccc5)no[n+]4[O-])CC3)nc(N)c2cc1OC	Alpha-1D adrenergic receptor (Rattus norvegicus, UniProt P23944)	8.49

Next, consider the following molecule.
Prompt line: Given "COc1cc2nc(N3CCN(C(=O)c4no[n+]([O-])c4C#N)CC3)nc(N)c2cc1OC" , respond with its pA2.
Response line: 8.04
